# pIC50 per record follows
# Study system: Prostaglandin G/H synthase 1 (Homo sapiens)
# Sequence (P23219 whole entry): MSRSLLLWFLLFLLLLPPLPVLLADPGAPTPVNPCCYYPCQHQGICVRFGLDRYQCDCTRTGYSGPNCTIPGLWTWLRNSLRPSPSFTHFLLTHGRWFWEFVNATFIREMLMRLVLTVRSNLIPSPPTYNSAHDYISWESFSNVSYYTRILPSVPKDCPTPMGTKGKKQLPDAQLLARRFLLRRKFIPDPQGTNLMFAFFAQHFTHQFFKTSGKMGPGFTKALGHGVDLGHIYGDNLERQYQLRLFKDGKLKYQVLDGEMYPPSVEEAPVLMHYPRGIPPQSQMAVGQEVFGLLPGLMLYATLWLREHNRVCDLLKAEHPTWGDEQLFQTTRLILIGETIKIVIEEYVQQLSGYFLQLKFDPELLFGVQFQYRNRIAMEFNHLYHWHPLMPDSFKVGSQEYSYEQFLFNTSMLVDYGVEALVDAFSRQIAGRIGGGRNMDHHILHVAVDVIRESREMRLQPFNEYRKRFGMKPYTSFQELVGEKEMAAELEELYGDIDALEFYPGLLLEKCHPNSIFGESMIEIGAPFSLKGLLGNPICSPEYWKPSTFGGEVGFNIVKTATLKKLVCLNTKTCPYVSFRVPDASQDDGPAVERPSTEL
# Assay: Inhibition of human recombinant COX1 by ELISA
In textbook form, pIC50 equals minus log to base ten of the concentration in mol/L.

Example entries and their recorded answers appear below.
# Compound, Study system, Measured value
measured = [
    ("NS(=O)(=O)c1ccc(N2N=C3c4ccccc4OCC3C2c2ccc(Cl)cc2Cl)cc1 (configuration not stated)", "Prostaglandin G/H synthase 1 (Homo sapiens)", 4.02),
    ("Cc1ccc(C2C3CCc4ccccc4C3=NN2c2ccc(S(N)(=O)=O)cc2)cc1 (configuration not stated)", "Prostaglandin G/H synthase 1 (Homo sapiens)", 4.05),
]

Now for the compound whose pIC50 we want.
Prompt line: Output pIC50 of NS(=O)(=O)c1ccc(N2N=C3c4ccccc4OCC3C2c2ccccc2Cl)cc1 (configuration not stated)
Response line: 4.06
